target: DAT (Homo sapiens, UniProt Q01959); experiment: Stereoselective uptake into DAT-overexpressing HEK293 cells; details: DAT; quotient of vmax over Km;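 also: intracellular accumulation measured by chiral HPLC-MS/MS in stably transfected HEK293 cells, normalized to total protein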
Sequence (Q01959 whole entry): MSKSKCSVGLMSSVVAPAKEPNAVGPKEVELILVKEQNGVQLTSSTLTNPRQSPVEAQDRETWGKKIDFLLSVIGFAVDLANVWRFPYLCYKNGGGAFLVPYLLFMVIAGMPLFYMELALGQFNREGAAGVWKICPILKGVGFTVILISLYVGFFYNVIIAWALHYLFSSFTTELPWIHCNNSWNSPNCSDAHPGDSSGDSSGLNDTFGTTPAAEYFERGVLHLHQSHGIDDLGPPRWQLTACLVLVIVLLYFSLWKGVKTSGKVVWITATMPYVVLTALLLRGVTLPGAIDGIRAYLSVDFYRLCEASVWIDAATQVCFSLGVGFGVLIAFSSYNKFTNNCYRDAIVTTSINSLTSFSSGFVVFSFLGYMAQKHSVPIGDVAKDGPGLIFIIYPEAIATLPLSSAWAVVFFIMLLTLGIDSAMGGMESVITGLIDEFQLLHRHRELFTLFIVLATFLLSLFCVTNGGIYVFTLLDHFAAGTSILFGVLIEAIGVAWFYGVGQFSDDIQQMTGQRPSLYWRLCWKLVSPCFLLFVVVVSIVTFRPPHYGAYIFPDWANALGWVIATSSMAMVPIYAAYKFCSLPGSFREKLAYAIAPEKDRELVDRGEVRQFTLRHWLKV
OUTCOME MEASURE: Clint ± SEM

Note Clint ± SEM for the compound shown: CNC[C@H](O)c1ccc(O)cc1 [(R)-Synephrine] 23.1 mL × g Protein^−1 × min^−1

---
Entry CNC[C@@H](O)c1ccc(O)c(O)c1 [(S)-Epinephrine] needs its Clint ± SEM filled in; supply it. 37.9 ± 14.8 mL × g Protein^−1 × min^−1

Write down Clint ± SEM measured for item CNC[C@@H](O)c1cccc(O)c1 [(S)-Phenylephrine] 11.6 mL × g Protein^−1 × min^−1
